Record form. Attribute: MLM + NADPH (% remaining at 45 min). Fill in for each entry.
Assay: Liver microsome stability assay (MLM)
Assay type: in vitro ADME
Settings: mouse liver microsomes
Your answer is read as %, so omit the unit and give the number.

Req: Which MLM + NADPH (% remaining at 45 min) is reported for this compound? Cc1nc(-c2ccc(-n3c(CCC(C)(C)O)cc4cc(C(=O)N5CCC(F)(F)CC5)cnc43)cc2)no1 [MF-DH-542]
Resp: 68

Req: MLM + NADPH (% remaining at 45 min) for Cc1c(C(=O)N2CCC(F)CC2)cnc2c1ccn2-c1ccc(C#N)cc1 [MF-DH-387] ?
Resp: 72

Req: Need MLM + NADPH (% remaining at 45 min), item Cc1nc(-c2ccc(-n3ccc4cc(C(=O)N5CCC(F)(F)CC5)cnc43)cn2)no1 [MF-DH-471]
Resp: 99

Req: Query (compound): O=C(c1cnc2c(ccn2-c2ccc(-c3nnn[nH]3)nc2)c1)N1CCC(F)(F)CC1 [MF-DH-452] ; field requested: MLM + NADPH (% remaining at 45 min)
Resp: 90

Req: Given Cc1c(C(=O)N2CCC(F)CC2)cnc2c1ccn2-c1ccc(C(N)=O)cc1 [MF-DH-380] , state its recorded MLM + NADPH (% remaining at 45 min).
Resp: 89

Req: I have this compound here, O=C(O)c1cccc(-n2ccc3cc(C(=O)N4CCC(F)(F)CC4)cnc32)c1 [MF-DH-507] , and I need its recorded MLM + NADPH (% remaining at 45 min).
Resp: 97

Req: Form field: reported MLM + NADPH (% remaining at 45 min) of CC(C)(O)CCc1cc2cc(C(=O)N3CCC(F)(F)CC3)cnc2n1-c1ccc(C(=O)O)cc1 [MF-DH-538]
Resp: 91

Req: # MLM + NADPH (% remaining at 45 min) lookup, item O=C(NC(CO)CO)c1ccc(-n2ccc3cc(C(=O)N4CCC(F)(F)CC4)cnc32)cc1 [MF-DH-412]
Resp: 97

----------
Hi there, I'd appreciate the recorded pIC50 for every entry that follows.
Target: 15-PGDH/HPGD (Homo sapiens (Human), UniProt P15428)
Sequence (P15428 whole entry): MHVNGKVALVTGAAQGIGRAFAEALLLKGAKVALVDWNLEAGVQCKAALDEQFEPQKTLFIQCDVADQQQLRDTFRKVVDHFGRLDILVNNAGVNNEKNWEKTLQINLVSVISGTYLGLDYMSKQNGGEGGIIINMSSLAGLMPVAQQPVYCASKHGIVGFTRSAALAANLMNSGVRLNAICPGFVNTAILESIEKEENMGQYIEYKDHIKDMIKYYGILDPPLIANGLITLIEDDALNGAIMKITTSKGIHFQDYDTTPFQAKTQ
Test: hPGDH inhibitor screening biochemical assay
Details: read-out: hPGDH: Average IC50
Source text: A hydroxyprostaglandin dehydrogenase inhibition screening biochemical assay can be performed to assess the synthesized inhibitors provided herein. Provided herein is an exemplary biochemical assay for hPGDH inhibitor screening. […]
pIC50: −log10 of the molar value.

Req: What value of pIC50 has been recorded for this entry: CCOC(=O)Nc1cncc(-n2ccc3cc(C(=O)N4CCC(F)(F)CC4)cnc32)c1
Resp: > 7.00

Req: For the compound O=C(Nc1ccccc1)c1ccc2c(c1)ncn2-c1cccc(Cl)c1 , what pIC50 is on record?
Resp: ≤ 6.00

Req: I am curious: what pIC50 value has been reported for O=C(Nc1cc(C2CC2)[nH]n1)c1cccc(-n2ccc3cc(C(=O)N4CCC(F)(F)CC4)cnc32)c1 ?
Resp: > 7.00

Req: Requested field: pIC50. Item: Cc1ncc(-n2cc(Cl)c3cc(C(=O)N4CCC(F)CC4)cnc32)cn1
Resp: > 7.00

Req: Requested field: pIC50. Item: N#Cc1ccc(-n2ccc3cc(C(=O)N4CCC(F)CC4)cnc32)cc1
Resp: > 7.00

Req: Bench note: what pIC50 did O=C(c1ccc2c(c1)ncn2-c1cccc(Cl)c1)N1CCC(O)C1 (centres unmarked) show?
Resp: ≤ 6.00

Req: What value of measured pIC50 is listed for O=C(c1cnc2c(c1)c(Cl)cn2-c1ccc2c(c1)OC(F)(F)O2)N1CCCCC1 ?
Resp: > 7.00

Req: Value lookup for pIC50; key = O=C(c1ccc2c(c1)ncn2-c1cccc(Cl)c1)N1CC(F)C1
Resp: > 7.00
